- Test target: T1, Mouse ST2 (mouse, UniProt P14719 27-332, limits assumed)
- T1 construct: also called mouse ST2 protein
- T1 sequence (looked up): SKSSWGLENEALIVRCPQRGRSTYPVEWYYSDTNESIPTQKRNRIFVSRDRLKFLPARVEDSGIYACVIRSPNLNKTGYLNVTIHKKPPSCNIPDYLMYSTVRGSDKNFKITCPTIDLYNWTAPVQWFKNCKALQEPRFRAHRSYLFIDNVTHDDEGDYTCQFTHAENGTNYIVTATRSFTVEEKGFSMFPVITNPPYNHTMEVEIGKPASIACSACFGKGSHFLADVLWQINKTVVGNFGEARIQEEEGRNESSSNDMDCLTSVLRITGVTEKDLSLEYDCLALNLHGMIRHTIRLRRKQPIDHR
- Method summary: SPR (Carterra), antibody immobilized, ST2 analyte, 1:1
Property measured: Kd (nM)
The figure you give is taken to be in nM; do not add the unit.

Measured Kd, Human ST2 IgG1 Antibody 70 (antibody, V domains shown, IgG1, kappa; also called ST2 Antibody 70) VH: QVQLVQSGAEVKKPGSSVKVSCKASGYAFTDYFIHWVRQAPGQGLEWMGGIIPIFGTANYAQKFQGRVTITADKSTSTAYMELSSLRSEDTAVYYCARVAYGAFDIWGQGTMVTVSS VL: EIVMTQSPATLSVSPGERATLSCRASQSVSSSYLAWYQQKPGQAPRLLIYGASTRATGIPARFSGSGSGTEFTLTISSLQSEDFAVYYCQQYNNWPLTFGGGTKVEIKR : 3900

***
Lookup result for Human ST2 IgG1 Antibody 83 (antibody, V domains shown, IgG1, kappa; also called ST2 Antibody 83) VH: EVQLLESGGGLVKPGGSLRLSCAASGFTFSSYWMSWVRQAPGKGLEWVSAIGTAGDTYYPGSVKGRFTISRDDSKNTLYLQMNSLKTEDTAVYYCAILRRDKVWPFDYWGQGTLVTVSS VL: DIQMTQSPSSLSASVGDRVTITCRASQSISSHLHWYQQKPGKAPKLLIYAASSLQSGVPSRFSGSGSGTDFTLTISSLQPEDFATYYCQQSYSSPVTFGGGTKVEIKR ; measured Kd: 438

Values from patent US20210403579A1
